- experimental.system: MKLP-2 (RabK6) (Homo sapiens, UniProt O95235, S2A)
- Construct: Expression clones for MKLP-21-519 (coding for residues 1 to 519) were obtained as follows; His-tag; made in house; host or cells: E. coli BL21(DE3)
- Sequence (O95235 1-519 S2A limits assumed): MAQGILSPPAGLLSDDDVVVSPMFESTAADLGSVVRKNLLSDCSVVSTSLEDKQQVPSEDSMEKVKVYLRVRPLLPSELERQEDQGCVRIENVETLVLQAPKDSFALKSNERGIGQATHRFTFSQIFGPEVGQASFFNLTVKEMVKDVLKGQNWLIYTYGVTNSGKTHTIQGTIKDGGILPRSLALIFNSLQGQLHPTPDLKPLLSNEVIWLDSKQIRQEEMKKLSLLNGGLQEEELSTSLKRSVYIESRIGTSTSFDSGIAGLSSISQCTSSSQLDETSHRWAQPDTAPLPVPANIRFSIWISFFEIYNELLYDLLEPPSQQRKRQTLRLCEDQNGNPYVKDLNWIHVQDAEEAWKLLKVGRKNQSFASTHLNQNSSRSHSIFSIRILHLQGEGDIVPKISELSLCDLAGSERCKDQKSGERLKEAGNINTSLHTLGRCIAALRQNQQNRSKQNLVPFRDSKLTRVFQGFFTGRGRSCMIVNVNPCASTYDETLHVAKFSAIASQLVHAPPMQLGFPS
- experiment.notes: biochemical
pIC50: −log10 of the molar value.
observed.property: pIC50

Solved cases (4 shown):
>  <compound>
C#C/C(=C\c1cccnc1)c1c[nH]c2ccc(OC)cc12 [Example 58]

>  <pIC50>
5.00 to 5.30

$$$$
>  <compound>
COc1ccc2[nH]cc(/C(C#N)=C/c3cnccc3C)c2c1 [Example 31]

>  <pIC50>
> 5.30

$$$$
>  <compound>
COc1ccc2[nH]cc(/C(C#N)=C/c3cccnc3F)c2c1 [Example 48]

>  <pIC50>
> 5.30

$$$$
>  <compound>
COc1cc(-c2ccc3[nH]cc(/C(C#N)=C/c4cccnc4)c3c2)cc(OC)c1OC [Example 38]

>  <pIC50>
5.00 to 5.30

$$$$

## Input Query pIC50 on MKLP-2 (RabK6) (Homo sapiens, UniProt O95235, S2A) for COc1ccc2[nH]cc(/C(C#N)=C/c3cnccc3Cl)c2c1 [Example 47]
## Output 5.00 to 5.30

## Input Also NC(=O)/C(=C\c1cccnc1)c1c[nH]c2ccccc12 [Example 56] ?
## Output < 4.30

## Input Also COc1ccc2[nH]cc(/C(C#N)=C/c3ccc(C#N)nc3)c2c1 [Example 54] ?
## Output 5.00 to 5.30

## Input Also COc1cccc2[nH]cc(/C(C#N)=C/c3cccnc3)c12 [Example 27] ?
## Output 4.70 to 5.00

###

Form field: pIC50 (one value per entry).
- experimental.system: MKLP-2 (RabK6) (Homo sapiens, UniProt O95235, S2A)
- Construct: Expression clones for MKLP-21-519 (coding for residues 1 to 519) were obtained as follows; His-tag; made in house; host or cells: E. coli BL21(DE3)
- experiment.notes: biochemical
pIC50: −log10 of the molar value.

Solved cases (2 shown):
>  <compound>
COc1ccc2[nH]cc(/C(C#N)=C/c3cccc([N+](=O)[O-])c3)c2c1

>  <pIC50>
< 4.30

$$$$
>  <compound>
COc1ccc2[nH]cc(/C(C#N)=C/c3ccc(Cl)nc3)c2c1

>  <pIC50>
5.00 to 5.30

$$$$

## Input # pIC50 lookup, item COc1ccc2[nH]cc(/C(C#N)=C/c3ccsc3)c2c1
## Output < 4.30

## Input Also COc1ccc2[nH]cc(/C(C#N)=C/c3ccc(C)nc3)c2c1 ?
## Output > 5.30

## Input Also COc1ccc2[nH]cc(C(C)=Cc3cccnc3)c2c1 (racemic) ?
## Output > 5.30

## Input Also COc1ccc2[nH]cc(/C(C#N)=C(\C)c3cccnc3)c2c1 ?
## Output > 5.30

###

- experimental.system: MKLP-2 (RabK6) (Homo sapiens, UniProt O95235, S2A)
- Construct: Expression clones for MKLP-21-519 (coding for residues 1 to 519) were obtained as follows; His-tag; made in house; host or cells: E. coli BL21(DE3)
- experiment.notes: biochemical
pIC50: −log10 of the molar value.
observed.property: pIC50

## Input # pIC50 lookup, item COC(=O)Nc1ccc2[nH]cc(/C(C#N)=C/c3cccnc3)c2c1
## Output > 5.30

## Input Also COc1ccc2[nH]cc(/C(C#N)=C/c3cccc(N)c3)c2c1 ?
## Output < 4.30

## Input Also N#C/C(=C\c1cccnc1)c1c[nH]c2ccc(F)cc12 ?
## Output > 5.30

## Input Also N#C/C(=C\c1cccnc1)c1c[nH]c2ccc(-c3ccc(F)cc3)cc12 ?
## Output 4.70 to 5.00

## Input Also N#C/C(=C\c1cccc(N)c1)c1c[nH]c2ccccc12 ?
## Output < 4.30
